Tested on: 3D7 line of P. falciparum
Assay: P. falciparum asexual intraerythrocytic growth inhibition
Format: cell-based
Conditions: Plasmodium falciparum, 3D7, read-out: IC50 (Pf3D7)
metric name: IC50

State the recorded IC50 for every item in the following list.
1. CC(C)c1ccc(C(=O)N(CC(=O)NC2CCCCC2)c2ccc(C(=O)NO)cc2)cc1
2. CC(C)(C)c1ccc(C(=O)N(CC(=O)NCc2ccccc2)Cc2ccc(C(=O)NO)cc2)cc1

570 to 77700 nM
5.2 to 8.8 nM

API: value(readout= IC50, system= 3D7 line of P. falciparum, query= Cc1cc(C)cc(C(=O)N(CC(=O)NC2CCCCC2)c2ccc(C(=O)NO)cc2)c1 )
570 to 77700 nM
